Biological target: Sodium channel protein type 9 subunit alpha (Homo sapiens)
Sequence (Q15858 whole entry): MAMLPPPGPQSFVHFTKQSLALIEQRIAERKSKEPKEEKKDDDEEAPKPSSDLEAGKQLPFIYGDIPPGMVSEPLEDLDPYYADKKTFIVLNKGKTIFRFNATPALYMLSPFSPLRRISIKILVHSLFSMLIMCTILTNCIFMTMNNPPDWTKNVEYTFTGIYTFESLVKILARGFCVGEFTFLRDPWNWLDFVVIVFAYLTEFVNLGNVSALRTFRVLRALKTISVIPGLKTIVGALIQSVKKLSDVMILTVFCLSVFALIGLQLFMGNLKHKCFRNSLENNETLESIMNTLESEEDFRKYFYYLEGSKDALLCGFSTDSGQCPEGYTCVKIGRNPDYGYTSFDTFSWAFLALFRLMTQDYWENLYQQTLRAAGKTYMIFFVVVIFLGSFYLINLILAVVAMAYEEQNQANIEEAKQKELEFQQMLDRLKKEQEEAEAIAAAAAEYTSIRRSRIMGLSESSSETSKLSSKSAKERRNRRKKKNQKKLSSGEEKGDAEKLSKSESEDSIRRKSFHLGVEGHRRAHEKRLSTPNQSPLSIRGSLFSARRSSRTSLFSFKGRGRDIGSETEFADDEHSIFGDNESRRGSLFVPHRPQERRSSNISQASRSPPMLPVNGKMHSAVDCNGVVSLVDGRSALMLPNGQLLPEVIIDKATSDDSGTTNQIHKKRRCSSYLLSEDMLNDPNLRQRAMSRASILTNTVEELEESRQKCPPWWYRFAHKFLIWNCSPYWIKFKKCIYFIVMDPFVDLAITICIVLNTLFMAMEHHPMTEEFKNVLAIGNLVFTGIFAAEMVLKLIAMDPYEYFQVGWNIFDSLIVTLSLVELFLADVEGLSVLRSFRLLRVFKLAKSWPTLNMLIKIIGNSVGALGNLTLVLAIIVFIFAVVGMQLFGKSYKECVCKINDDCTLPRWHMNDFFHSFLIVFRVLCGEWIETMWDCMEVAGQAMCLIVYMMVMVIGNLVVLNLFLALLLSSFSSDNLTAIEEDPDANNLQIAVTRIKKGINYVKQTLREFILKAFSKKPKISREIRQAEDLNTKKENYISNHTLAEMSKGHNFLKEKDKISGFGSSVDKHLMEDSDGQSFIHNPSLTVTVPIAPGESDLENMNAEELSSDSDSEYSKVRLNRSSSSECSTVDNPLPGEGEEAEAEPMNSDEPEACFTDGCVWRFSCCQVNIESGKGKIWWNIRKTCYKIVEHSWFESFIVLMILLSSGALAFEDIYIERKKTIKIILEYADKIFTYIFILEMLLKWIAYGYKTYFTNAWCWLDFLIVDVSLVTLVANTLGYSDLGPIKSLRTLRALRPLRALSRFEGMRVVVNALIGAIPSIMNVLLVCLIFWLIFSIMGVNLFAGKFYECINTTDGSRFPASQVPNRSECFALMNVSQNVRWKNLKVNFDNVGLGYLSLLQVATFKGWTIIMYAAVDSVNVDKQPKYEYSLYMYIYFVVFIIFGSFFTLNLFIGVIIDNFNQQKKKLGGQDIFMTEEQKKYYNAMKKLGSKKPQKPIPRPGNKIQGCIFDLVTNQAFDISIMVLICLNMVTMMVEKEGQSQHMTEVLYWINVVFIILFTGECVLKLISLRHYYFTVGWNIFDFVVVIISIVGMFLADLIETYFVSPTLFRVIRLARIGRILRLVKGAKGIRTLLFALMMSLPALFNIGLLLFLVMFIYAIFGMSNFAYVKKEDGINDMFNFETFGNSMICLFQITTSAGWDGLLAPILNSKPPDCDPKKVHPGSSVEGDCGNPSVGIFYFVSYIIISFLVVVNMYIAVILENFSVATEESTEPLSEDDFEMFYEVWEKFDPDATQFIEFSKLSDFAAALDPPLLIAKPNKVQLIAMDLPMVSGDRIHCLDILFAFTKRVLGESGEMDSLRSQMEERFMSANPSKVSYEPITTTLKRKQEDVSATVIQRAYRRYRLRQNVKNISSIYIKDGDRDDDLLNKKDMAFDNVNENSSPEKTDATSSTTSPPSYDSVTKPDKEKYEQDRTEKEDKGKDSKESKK
Experiment: Compound effects were measured on a partially inactivated state of the sodium channel. Cells were clamped to a holding potential yielding 20 to 50% inactivation. To elicit sodium current, channels were activated by pulsing to -10 mV for 20 msec. This voltage protocol was repeated at a rate of 0.1 Hz throughout the experiment.
I'd appreciate it if you marked entries T when IC50 is lower than 30 nM and F when it is not.

smilesString | targetSystem | categoryLabel
COc1cc(C2CCCC2)c(F)cc1-n1c(=O)ccc2cc(S(=O)(=O)Nc3ccon3)ccc21 | Sodium channel protein type 9 subunit alpha (Homo sapiens) | F
COc1ccc(CC(=O)OC(C)(C)C)cc1-n1c(=O)ccc2cc(S(=O)(=O)Nc3ccon3)ccc21 | Sodium channel protein type 9 subunit alpha (Homo sapiens) | F
COc1cc(-c2cc(F)cc(C(F)(F)F)c2)ccc1-n1c(=O)ccc2cc(S(=O)(=O)Nc3ccon3)ccc21 | Sodium channel protein type 9 subunit alpha (Homo sapiens) | T
COc1cc(CC2CCCC2)c(F)cc1-n1c(=O)ccc2cc(S(=O)(=O)Nc3ccon3)ccc21 | Sodium channel protein type 9 subunit alpha (Homo sapiens) | T
COc1cc(C2CCOCC2)c(F)cc1-n1c(=O)ccc2cc(S(=O)(=O)Nc3ccon3)ccc21 | Sodium channel protein type 9 subunit alpha (Homo sapiens) | F

Input: Is 30 nM strictly greater than the molecule's reported IC50? molecule: COc1cc(OC)cc(-c2cc(OC)c(-n3c(=O)ccc4cc(S(=O)(=O)Nc5ncc(F)cn5)ccc43)cc2F)c1
Output: F

Input: Is 30 nM strictly greater than the molecule's reported IC50? molecule: COc1cc(NS(=O)(=O)c2ccc3c(ccc(=O)n3-c3cc(F)c(Br)cc3OC)c2)ncn1
Output: F

Input: Is 30 nM strictly greater than the molecule's reported IC50? molecule: COc1cc(C#CC2CCCC2)c(F)cc1-n1c(=O)ccc2cc(S(=O)(=O)Nc3cccnn3)ccc21
Output: T
